experiment: NCI Yeast Anticancer Drug Screen. Data for the mec2-1 strain (AID 157); settings: S. cerevisiae mec2-1 strain, at 50.0 µM, stronger effect = higher value
About 79,000 compounds went through this panel and 15% of them were active in at least one assay; those are over-represented in the sample as a whole.
REPORTED ENDPOINT: growth inhibition (%)

compound=ClCCN(CCCl)c1ccc(/C=N/Nc2ccnc3ccccc23)cc1 value_unit=% measured_result=96.3
compound="CC(C)=CC1C(C(=O)OCCOc2ccccc2)C1(C)C (stereo not given)" value_unit=% measured_result=-6.5
compound=C1CN1[PH+](N1CC1)N1CC1.[C-]#[O+].[C-]#[O+].[C-]#[O+].[C-]#[O+].[C-]#[O+].[Cr] value_unit=% measured_result=-4.65
compound=COc1ccc(NC(=O)/C(=N/NC(N)=S)C2C(=O)NC(=S)NC2=O)c(OC)c1 value_unit=% measured_result=-4
compound=Cc1cc(-c2ccccc2)cc(C)[n+]1CC[n+]1c(C)cc(-c2ccccc2)cc1C value_unit=% measured_result=-10.7
compound="[N-]=[N+]=CC(=O)OCC(N)C(=O)O (stereo not given)" value_unit=% measured_result=-12.8
compound="CC[As](CC)SC(CC[C@@H](C)C1CC[C@@]2(C)C3=C(CC[C@]12C)[C@@]1(C)CC[C@H](O)C(C)(C)[C@@H]1CC3)C(C)C (stereo not given in full)" value_unit=% measured_result=17.6
compound=Clc1ccc(N=P(c2ccccc2)(c2ccccc2)c2ccccc2)cc1.[Cl][Co][Cl] value_unit=% measured_result=11.1
compound=[O-][n+]1ccccc1S value_unit=% measured_result=99.7
compound=CC(C)(C)[Si](C)(C)OC(=O)CCCc1ccc(N(CCCl)CCCl)cc1 value_unit=% measured_result=-9.9

---

Test: NCI Yeast Anticancer Drug Screen. Data for the sgs1 mgt1 strain (AID 161);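 also: 0% = growth of cultures given vehicle only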
Conditions: S. cerevisiae sgs1 mgt1 strain, at 50.0 µM, stronger effect = higher value
Protocol: Growth inhibition of yeast strains with defined genetic alterations is measured as a screen for potential anti-cancer activity. Selected strains with alterations in DNA damage repair or cell cycle control were exposed to compounds and growth inhibition was measured relative to vehicle treated controls. The strain used in this assay is sgs1 mgt1
This is part of a sample that, as a whole, favours compounds with a hit. Of some 79,000 tested, about 15% had one in any assay.
REPORTED ENDPOINT: growth inhibition (%)

compound="CCC1(OC(=O)CNC)C(=O)OCc2c1cc1n(c2=O)Cc2cc3ccccc3nc2-1 (stereo not given)" value_unit=% measured_result=76.3
compound=Cc1cc(N(CCCl)CCCl)ccc1C1N(Cc2ccc(Cl)cc2Cl)CCCN1Cc1ccc(Cl)cc1Cl value_unit=% measured_result=57.5
compound=CN(C)c1c2c(=O)n(C)c(=O)n(C)c2nc2cccc[n+]12 value_unit=% measured_result=-5.2
compound=O=NNc1ncc(Cl)cc1Cl value_unit=% measured_result=-6.05
compound=O=C1[C@@H]2[C@H](C(=O)N1c1ccccc1)[C@H]1CC[C@H]2N1C(=O)c1ccccc1 value_unit=% measured_result=2.2

---

assay: NCI Yeast Anticancer Drug Screen. Data for the bub3 strain (AID 167); conditions: S. cerevisiae bub3 mutant strain, at 50.0 µM, stronger effect = higher value
The panel holds about 79,000 compounds, 15% with a hit somewhere; the sample as a whole holds those more often.
REPORTED ENDPOINT: growth inhibition (%)

molecule=CCCC[As](=O)(O)C(C)C measured_result=6.95
molecule=CCOC(OCC)c1ccccc1 measured_result=6.6
molecule="N#CC(c1ccccc1)N1CCCN(C(C#N)c2ccccc2)C1c1ccc(N(CCCl)CCCl)cc1 (configuration not stated)" measured_result=-0.9
molecule=C1CC[N-]CC1.CC(=N\O)/C(C)=N/O.CC(=N\O)/C(C)=N/O.[CH2-]c1ccccc1.[Co+2] measured_result=16.4
molecule="C=CC(C)(C)C12CC3C(=O)N/C(=C\\c4cnc[nH]4)C(=O)N3C1Nc1ccccc12 (configuration not stated)" measured_result=-6.3
molecule="CCN(CC)P1(=O)OP(=O)(N(CC)CC)OP(=O)(N(CC)CC)O1 (configuration not stated)" measured_result=-9.7
molecule=CCCCCC[C@@H](O)[C@@H]1C2=C(C[C@H]([C@H](O)[C@@H]3CC=CC(=O)O3)CC3=C(C(=O)OC3=O)[C@@H]1O)C(=O)OC2=O measured_result=16.7
molecule=CC(=O)[O][Sn]([CH3])([CH3])[c]1ccccc1 measured_result=84.2
molecule=Clc1cc[c]([Sn]([Cl])([c]2ccc(Cl)cc2)[c]2ccc(Cl)cc2)cc1 measured_result=97.5
molecule="O=C(c1ccc([N+](=O)[O-])cc1)C1NC1c1ccccc1 (configuration not stated)" measured_result=22.3
molecule=NC1(P(=O)(O)O)CCCCC1 measured_result=-31.6
molecule="COC1OC2COC(c3ccccc3)OC2C2N=C(N)N([N+](=O)[O-])C12OS(C)(=O)=O (configuration not stated)" measured_result=-3.6
